# tested-on: Acyl-protein thioesterase 2 (Homo sapiens) (UniProt O95372)
# Sequence (O95372 whole entry, looked up): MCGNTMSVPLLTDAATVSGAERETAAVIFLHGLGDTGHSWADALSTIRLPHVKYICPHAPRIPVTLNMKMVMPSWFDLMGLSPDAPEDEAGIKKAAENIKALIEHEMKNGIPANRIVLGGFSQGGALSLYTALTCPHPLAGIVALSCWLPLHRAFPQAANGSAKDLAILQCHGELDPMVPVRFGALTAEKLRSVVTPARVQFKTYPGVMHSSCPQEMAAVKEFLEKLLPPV
# assay-notes: LYPLA1 and LYPLA2 inhibitor potency in vitro, late-stage follow-up, cell lysate, HeLa soluble proteome, fluorescence gel (AID 743118)
# measurement-setup: gel-based ABPP FP-Rh fluorescence, LYPLA2
readout-label: IC50

See these solved cases before continuing.
>  <compound>
O=C(ON1C(=O)C2CN(C(=O)N3CCCCC3)CCN2C1=O)N1CCC(CCc2ccc(Cl)cc2)CC1 (stereo not given)

>  <IC50>
0.258 µM

$$$$
>  <compound>
O=C(ON1C(=O)C2CN(C(=O)N3CCCC3)CCN2C1=O)N1CCC(CCc2ccc(Cl)cc2)CC1 (stereo not given)

>  <IC50>
0.384 µM

$$$$
>  <compound>
O=C(ON1C(=O)C2CN(C(=O)c3ccc(Br)cc3)CCN2C1=O)N1CCC(CCc2ccc(Cl)cc2)CC1 (stereo not given)

>  <IC50>
0.726 µM

$$$$

Reported IC50 for Acyl-protein thioesterase 2 (Homo sapiens) (UniProt O95372), given CC(C)(C)CC(=O)N1CCN2C(=O)N(OC(=O)N3CCC(CCc4ccc(Cl)cc4)CC3)C(=O)C2C1 (stereo not given) ?
0.217 µM

For Acyl-protein thioesterase 2 (Homo sapiens) (UniProt O95372), provide IC50 of O=C(ON1C(=O)C2CN(C(=O)N3CCOCC3)CCN2C1=O)N1CCC(CCc2ccc(Cl)cc2)CC1 (stereo not given) please.
0.245 µM
